Sourced from patent US20200270588A1

Activity reference
- Tested on: Avena bx glucosyl transferase (SEQ ID NO 8)
- RUN DESCRIPTION: UDP-Glo glucosyl transferase assay, purified enzyme
- Format: biochemical
- CONDITION INFO: herbicide 0.500 mM; limit of detection about 0.001
Numeric answer plus unit only.

Examples from the recorded data:
{"columns": ["COMPOUND", "SYSTEM UNDER TEST", "Activity"],
 "data": [
  ["Cc1cnc(N2C(=O)N(C)CC2O)cc1C(F)(F)F (stereo not shown)", "Avena bx glucosyl transferase (SEQ ID NO 8)", "0.003 pmol/sec/pmol enzyme"],
  ["CN1CC(O)N(c2cc(C(F)(F)F)c(Cl)cn2)C1=O (stereo not shown)", "Avena bx glucosyl transferase (SEQ ID NO 8)", "0.002 pmol/sec/pmol enzyme"],
  ["CON1C(=O)N(c2cc(C(F)(F)F)ccn2)C(O)[C@@H]1C (stereo partly shown)", "Avena bx glucosyl transferase (SEQ ID NO 8)", "0.002 pmol/sec/pmol enzyme"]
]}

# evaluate next
// query Hi! What's the reported Activity for CN1CC(O)N(c2cc(C(F)(F)F)ccn2)C1=O (stereo not shown) on Avena bx glucosyl transferase (SEQ ID NO 8)?
// result 0.002 pmol/sec/pmol enzyme
